- Test system: MRC-5 (human lung fibroblast cell line)
- Protocol notes: Cytotoxicity MTT assay, MRC-5
- Assay type: cell-based
- Cond: MTT, 24 h treatment; read-out: IC50 MRC-5
List of pIC50 values.
In simple prose, pIC50 is minus the logarithm base ten of a concentration in moles per litre.

The cases that follow already have their pIC50 on record.
Chemical structure	Reported metric	Readout value
CCCCCCCOC(=O)c1ccc(O)c(O)c1	pIC50	3.89
CCCCCCCOC(=O)c1ccc(O)cc1O	pIC50	3.89

Attention now shifts to the item below.
Would you mind telling me what pIC50 value was observed for CCCCCCCOC(=O)c1cc(O)ccc1O ? 3.84
